Measured Quantity: melting point

# annotated cases, reported melting point shown
compound=C[C@]12CC[C@@H](O)C[C@@H]1CC[C@@H]1[C@@H]2CC[C@]2(C)[C@@H](OCCO)CC[C@@H]12 measured_quantity="melting point" value_measured="181 to 183 °C"
compound=C[C@]12CC[C@@H](O)C[C@H]1CC[C@@H]1[C@@H]2CC[C@]2(C)[C@@H](C(=O)CSCCO)CC[C@@H]12 measured_quantity="melting point" value_measured="150 to 152 °C"
compound="COC1CCC2C3CCC4CC(O)(C#Cc5ccc(C(C)=O)cc5)CCC4(C)C3CCC12C (centres unmarked)" measured_quantity="melting point" value_measured="189 to 191 °C"
compound=CC(=O)c1ccc(C#CCO[C@H]2CC[C@H]3[C@@H]4CC[C@H]5C[C@](C)(O)CC[C@]5(C)[C@H]4CC[C@]23C)cc1 measured_quantity="melting point" value_measured="52 to 55 °C"
compound="COC1CCC2C3CCC4CC(O)(C#Cc5ccc(C(C)=O)cc5)CCC4C3CCC12C (centres unmarked)" measured_quantity="melting point" value_measured="148 to 150 °C"

compound COCC1(O)CCC2(C)C(CCC3C2CCC2(C)C(C(=O)CSc4ccc(N)cc4)CCC32)C1 (centres unmarked) , melting point observed: 150 to 156 °C

compound C[C@@]1(O)CC[C@@]2(C)[C@@H](CC[C@@H]3[C@@H]2CC[C@]2(C)[C@@H](C(=O)COc4ccc([N+](=O)[O-])cc4)CC[C@@H]32)C1 , melting point observed: 169 to 172 °C

compound C[C@]12CC[C@@H](O)C[C@H]1CC[C@@H]1[C@@H]2CC[C@]2(C)[C@@H](C(=O)COc3cccnc3)CC[C@@H]12 , melting point observed: 63 to 66 °C

compound COC1CCC2C3CCC4CC(O)(C(F)(F)F)CCC4C3CCC12C (centres unmarked) , melting point observed: 40 to 42 °C

compound COC1CCC2C3CCC4CC(O)(C(F)(F)F)CCC4(C)C3CCC12C (stereo not drawn) [3α-Hydroxy-17β-methoxy-3β-trifluoromethyl-5β-androstane] , melting point observed: 122 to 127 °C

compound C#CC1(O)CCC2C(CCC3C2CCC2(C)C(OC)CCC32)C1 (centres unmarked) , melting point observed: 152 to 154 °C

compound C[C@]12CC[C@@H](O)C[C@@H]1CC[C@@H]1[C@@H]2CC[C@]2(C)[C@@H](C(=O)CSc3ccncc3)CC[C@@H]12 , melting point observed: 154 to 156 °C

compound CO[C@H]1CC[C@H]2[C@@H]3CC[C@@H]4C[C@H](OC(=O)C(C)C)CC[C@]4(C)[C@H]3CC[C@]12C , melting point observed: 82 to 87 °C

compound CO[C@H]1CC[C@H]2[C@@H]3CC[C@@H]4C[C@H](O)CC[C@]4(C)[C@H]3CC[C@]12C [3α-Hydroxy-17β-methoxy-5β-androstane] , melting point observed: 151 to 156 °C

====

# Target Or Test System: GABA receptor complex (GRC)
# Test Details: [35S]TBPS binding in rat cerebral cortex P2 homogenate
# Applied Conditions: concentration to inhibit 50% of control [35S]TBPS binding; 2 nM [35S]TBPS
Structures can show the parent of a compound that is named as a salt.
Quick reference: pIC50 of the listed items.
The quantity pIC50 is defined as the negative base-10 logarithm of the molar concentration.

molecule="C[C@@]12CCC[C@H]1[C@@H]1CC[C@H]3C[C@H](O)CC[C@]3(C)[C@H]1CC2 [3α-Hydroxy-5α-androstane, reference compound]" value_measured=6.31

Item: CCCO[C@H]1C[C@@]2(C)[C@@H](CC[C@@H]3[C@@H]2CC[C@]2(C)[C@@H](C(=O)CSCCCS(=O)(=O)[O-])CC[C@@H]32)C[C@@H]1O.[Na+] [sodium salt] | System: GABA receptor complex (GRC) | pIC50: 7.17

Item: CC12CCC(O)(C#CCCO)CC1CCC1C2CCC2(C)C(C(=O)CSc3ccncc3)CCC12 (stereo not shown) | System: GABA receptor complex (GRC) | pIC50: 7.82

Item: C[C@]12CC[C@@H](O)C[C@@H]1CC[C@@H]1[C@@H]2CC[C@]2(C)[C@@H](C(=O)CSc3ccncc3)CC[C@@H]12 | System: GABA receptor complex (GRC) | pIC50: 7.64

Item: CC(=O)c1ccc(C#CCO[C@H]2CC[C@H]3[C@@H]4CC[C@H]5C[C@](C)(O)CC[C@]5(C)[C@H]4CC[C@]23C)cc1 | System: GABA receptor complex (GRC) | pIC50: 6.50

Item: CCCOC1CC2(C)C(CCC3C2CCC2(C)C(C(=O)COc4ccc([N+](C)(C)C)cc4)CCC32)CC1O (stereo not shown) | System: GABA receptor complex (GRC) | pIC50: 6.89

Item: CC(=O)c1ccc(C#C[C@@]2(O)CC[C@@]3(C)[C@H](CC[C@@H]4[C@@H]3CC[C@]3(C)[C@@H](C(=O)CSc5ccncc5)CC[C@@H]43)C2)cc1 | System: GABA receptor complex (GRC) | pIC50: 7.54

Item: C[n+]1ccc(SCC(=O)C2CCC3C4CCC5CC(O)CCC5(C)C4CCC23C)cc1 (stereo not drawn) [3α-Hydroxy-21-(pyrid-4-ylthio)-5α-pregnan-20 -one N-methyl i] | System: GABA receptor complex (GRC) | pIC50: 6.73

Item: COCC1(O)CCC2(C)C(CCC3C2CCC2(C)C(C(=O)CSc4ccc(F)cc4)CCC32)C1 (stereo not shown) | System: GABA receptor complex (GRC) | pIC50: 6.75

Item: COC1CCC2C3CCC4CC(O)(C#CCCO)CCC4(C)C3CCC12C (stereo not drawn) [3β-(4′-Hydroxybutyn-1′yl)-3α-hydroxy-17β-methoxy-5β-androsta] | System: GABA receptor complex (GRC) | pIC50: 7.59

Item: C#CC1(O)CCC2(C)C(CCC3C2CCC2(C)C(C(=O)CSCCOS(=O)(=O)O)CCC32)C1 (stereo not shown) [ammonium salt] | System: GABA receptor complex (GRC) | pIC50: 6.49

Item: CO[C@H]1CC[C@H]2[C@@H]3CC[C@@H]4C[C@H](O)CC[C@]4(C)[C@H]3CC[C@]12C [3α-Hydroxy-17β-methoxy-5β-androstane] | System: GABA receptor complex (GRC) | pIC50: 7.21

Cited source for all entries: patent US6780853B1
